Measured values drawn from PubChem BioAssay (NCI) for this set.

Assay: NCI Yeast Anticancer Drug Screen. Data for the mec2-1 strain (AID 157)
Conditions: S. cerevisiae mec2-1 strain, at 50.0 µM, active compounds read high
About 79,000 compounds went through this panel and 15% of them were active in at least one assay; those are over-represented in the sample as a whole.
Quantity kind: growth inhibition (%)
Please respond with the number in % and leave the unit unwritten.

CC(=O)/C=C\C(=O)NNS(=O)(=O)c1ccc(C)cc1: 12.7

Query :: Item O=C(C1=Cc2ccccc2OC1)N1CCN(c2ccccc2Cl)CC1 : provide growth inhibition
Result :: 20.2

Query :: Item CCOC(=O)c1c(C#N)c2cnn(-c3ccccc3)c2n2cccc12 : provide growth inhibition
Result :: 9.8

---

Assay: NCI Yeast Anticancer Drug Screen. Data for the mec2-1 strain (AID 157)
Conditions: S. cerevisiae mec2-1 strain, at 50.0 µM, active compounds read high
About 79,000 compounds went through this panel and 15% of them were active in at least one assay; those are over-represented in the sample as a whole. The source made the active and inactive calls. Rule as the data show it: active = growth inhibition above about 70%; inactive = the rest.
Reported growth inhibition by item:

For orientation, consider the following solved cases.
C/C(=N\NC(N)=S)c1ccc(/C(C)=N/NC(N)=S)cc1: -0.25% (inactive)
CC1(C)CC2C(C1=O)C1(C)CCCC2(C)C1=O (stereo not drawn): -7.1% (inactive)
COc1cccc2c1C(c1ccc3ccccc3c1)OC2=O (stereo not drawn): -11.4% (inactive)
CC(C)C(C(N)=O)C(C)(C)C (stereo not drawn): 4.2% (inactive)
CCOC(=O)C(C)C(=O)C(C)C (stereo not drawn): 0.5% (inactive)

Query :: Item O=C(Nc1ccc(Cl)cc1)c1ccc(Cl)c(Cl)c1 : provide growth inhibition
Result :: 14.8% (inactive)

Query :: Item CSc1nc2nc(C)c(C)nc2c(=O)[nH]1 : provide growth inhibition
Result :: -19.4% (inactive)

Query :: Item O=[N+]([O-])c1ccc2nc(-c3ccccc3[N+](=O)[O-])[nH]c2c1 : provide growth inhibition
Result :: 0.85% (inactive)

Query :: Item CC1C2=C(CCCC2=O)O/C1=N\O (stereo not drawn) : provide growth inhibition
Result :: -6.85% (inactive)

---

Experiment: NCI Yeast Anticancer Drug Screen. Data for the bub3 strain (AID 167)
Settings: S. cerevisiae bub3 mutant strain, at 50.0 µM, active compounds read high
About 79,000 compounds went through this panel and 15% of them were active in at least one assay; those are over-represented in the sample as a whole.
Quantity kind: growth inhibition (%)
Please respond with the number in % and leave the unit unwritten.

For orientation, consider the following solved cases.
O=C1CCCC2=C1C(c1ccc(Cl)c(Cl)c1)C1=C(CCCC1=O)O2: 12.6
O=c1[nH][nH]c(=O)c2c1nc(SCCc1ccccc1)n2Cc1ccccc1: 1.8
COC(=O)[C@]1(C)CCC[C@@]2(C)C1CC[C@@]13C=C(C(C)C)[C@@H](CC1=O)CC23 (some centres undefined): 26.4
CC1CCCC(C)C1O (centres undefined): -4.6
CNC(=O)N(C)C(=O)c1ccncc1C(=O)N(C(=O)NC1CCCCC1)C1CCCCC1: -3.95
O=C(O)CCC(=O)Nc1cc([N+](=O)[O-])ccc1OCc1ccccc1: -0.95

Query :: Item CCC(C)C(=O)c1c(O)c(C/C=C(\C)CCC=C(C)C)c(O)c2c(C(O)CC)cc(=O)oc12 (centres undefined) : provide growth inhibition
Result :: 20.1

Query :: Item COc1nc(NC2OC(CO)C(O)C(O)C2O)c(C(C)=O)c(=O)[nH]1 (centres undefined) : provide growth inhibition
Result :: -14.8

Query :: Item CC(C)CCCC(C)C1CCC2(C)C3CCC(C(C)O)C(C)(CCCO)C3CCC12C (centres undefined) : provide growth inhibition
Result :: 23.8

Query :: Item CC1(C)C=C(C(Br)c2cccc(Cl)c2)C(=O)c2ccccc21 (centres undefined) : provide growth inhibition
Result :: 98.8

Query :: Item COc1c2c(cc3c1C1(O)Cc4ccc5c(c4C[N+]1(C)CC3)OCO5)OCO2 (centres undefined) : provide growth inhibition
Result :: -4.25
